Biological target: UniProtKB O75762
Sequence (O75762 whole entry): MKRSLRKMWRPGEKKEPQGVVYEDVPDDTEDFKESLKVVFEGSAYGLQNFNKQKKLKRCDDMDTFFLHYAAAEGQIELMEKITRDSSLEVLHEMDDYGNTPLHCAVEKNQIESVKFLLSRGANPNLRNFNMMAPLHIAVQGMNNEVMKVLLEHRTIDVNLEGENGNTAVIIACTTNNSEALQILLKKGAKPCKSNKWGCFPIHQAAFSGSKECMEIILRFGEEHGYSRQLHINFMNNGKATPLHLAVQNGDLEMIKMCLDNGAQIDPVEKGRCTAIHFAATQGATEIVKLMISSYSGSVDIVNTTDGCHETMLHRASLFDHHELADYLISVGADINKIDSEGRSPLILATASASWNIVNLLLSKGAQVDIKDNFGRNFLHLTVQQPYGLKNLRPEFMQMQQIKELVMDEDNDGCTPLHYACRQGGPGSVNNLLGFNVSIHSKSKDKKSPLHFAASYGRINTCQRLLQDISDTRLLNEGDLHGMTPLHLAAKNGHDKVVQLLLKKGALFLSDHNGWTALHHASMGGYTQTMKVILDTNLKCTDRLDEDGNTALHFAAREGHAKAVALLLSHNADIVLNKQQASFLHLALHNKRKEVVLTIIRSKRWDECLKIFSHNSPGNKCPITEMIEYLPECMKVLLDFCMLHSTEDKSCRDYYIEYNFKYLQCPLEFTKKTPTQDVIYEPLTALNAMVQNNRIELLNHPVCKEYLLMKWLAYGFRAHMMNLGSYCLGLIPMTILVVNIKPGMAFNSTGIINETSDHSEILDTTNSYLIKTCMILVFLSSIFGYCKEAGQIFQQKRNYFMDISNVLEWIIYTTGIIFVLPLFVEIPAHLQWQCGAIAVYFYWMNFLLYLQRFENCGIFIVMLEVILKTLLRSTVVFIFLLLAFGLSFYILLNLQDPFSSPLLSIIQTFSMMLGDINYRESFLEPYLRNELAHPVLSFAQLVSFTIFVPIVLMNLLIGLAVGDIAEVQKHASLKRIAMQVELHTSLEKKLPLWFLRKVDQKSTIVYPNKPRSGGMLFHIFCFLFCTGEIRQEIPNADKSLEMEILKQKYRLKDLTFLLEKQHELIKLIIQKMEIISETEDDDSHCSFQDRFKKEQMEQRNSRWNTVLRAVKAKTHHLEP
Test: Assay 1: In vitro cellular testing of TRPA1 modulation (CHO-TREx, Fluo-3 calcium fluorescence, AITC agonist)
Format: cell-based
Design: expressed in transfected cells; host or cells: CHO-TREx cells (Invitrogen), vector pcDNA4/TO
Settings: CHO-TREx cells expressing human TRPA1; Fluo-3 fluorescence (FLIPR/Tetra); agonist 15 μM allyl isothiocyanate (AITC); 30 minute antagonist incubation
Protocol: Assay 1: In Vitro Cellular Testing of TRPA1 Modulation Human TRPA1 (NCBI accession number NM_007332.1) was cloned into pcDNA4/TO. […] Following a further 30 minute incubation, cells were assayed using a Fluorometric Imaging Plate Reader (FLIPR™) or a Tetra (both manufactured by Molecular Devices, CA) to simultaneously monitor Fluo-3 fluorescence in all wells (λexcitation=488 nm, λemission=540 nm). […]
pIC50: −log10 of the molar value.
compounds and their reported pIC50

compound	target-entity	pIC50
O=C(NCc1cccc(-c2ccc(C(F)(F)F)nc2)c1)[C@@H]1CCCN1S(=O)(=O)c1ccc(F)cc1	UniProtKB O75762	7.77
CC(Nc1cc(CNC(=O)[C@@H]2CC(F)(F)CN2S(=O)(=O)c2ccc(F)cc2)cc(-c2ccc(C(F)(F)F)cc2)n1)c1ccccn1 (stereo partly drawn)	UniProtKB O75762	5.98
O=C(NCc1cc(-c2ccc(C(F)(F)F)cc2)nc(N2CCN(Cc3cccnc3)CC2)c1)[C@@H]1C=CCN1S(=O)(=O)c1ccc(F)cc1	UniProtKB O75762	5.77
